TARGET ENTITY: recombinant human meprin α (Homo sapiens, UniProt Q16819)
Sequence (Q16819 66-746): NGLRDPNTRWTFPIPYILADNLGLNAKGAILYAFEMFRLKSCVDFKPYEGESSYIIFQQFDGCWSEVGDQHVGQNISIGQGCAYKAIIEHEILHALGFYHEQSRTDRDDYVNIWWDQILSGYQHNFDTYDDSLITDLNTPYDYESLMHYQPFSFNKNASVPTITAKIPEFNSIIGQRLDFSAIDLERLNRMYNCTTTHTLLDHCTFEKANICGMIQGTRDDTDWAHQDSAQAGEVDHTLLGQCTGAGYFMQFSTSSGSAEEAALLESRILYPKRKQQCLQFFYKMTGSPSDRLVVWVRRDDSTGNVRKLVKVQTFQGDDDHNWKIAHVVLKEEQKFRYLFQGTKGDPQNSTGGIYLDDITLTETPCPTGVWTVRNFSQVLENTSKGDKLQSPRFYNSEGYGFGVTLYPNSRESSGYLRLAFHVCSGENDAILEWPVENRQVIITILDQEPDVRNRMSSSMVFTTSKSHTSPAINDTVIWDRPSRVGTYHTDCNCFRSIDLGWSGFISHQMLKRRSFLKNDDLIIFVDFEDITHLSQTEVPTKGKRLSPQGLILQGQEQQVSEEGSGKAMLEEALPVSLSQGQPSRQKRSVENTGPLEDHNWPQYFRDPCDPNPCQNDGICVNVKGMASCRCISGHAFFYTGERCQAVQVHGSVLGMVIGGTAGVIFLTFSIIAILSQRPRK
ASSAY NOTES: meprin α inhibition, quenched fluorogenic peptide substrate assay
pKi: −log10 of the molar value.
READOUT LABEL: pKi

Worked examples, 5 compounds total:
{"SMILES": "O=C(Cn1c(-c2ccccc2)ccc1-c1ccccc1)NO", "OBSERVED MEASUREMENT": 7.70}
{"SMILES": "O=C(CCn1c(-c2ccccc2)nc2ccccc21)NO", "OBSERVED MEASUREMENT": 5.99}
{"SMILES": "O=C(Cn1c(-c2ccccc2)nnc1-c1ccccc1)NO", "OBSERVED MEASUREMENT": 7.18}
{"SMILES": "O=C(Cc1c(-c2ccccc2)nnn1-c1ccccc1)NO", "OBSERVED MEASUREMENT": 8.05}
{"SMILES": "O=C(CCn1nc(-c2ccccc2)cc1-c1ccccc1)NO", "OBSERVED MEASUREMENT": 6.39}

[A] O=C(Cn1c(-c2ccccc2)nc2ncccc21)NO
[B] O=C(Cn1c(-c2ccccc2)cc2ccccc21)NO
[C] O=C(CCn1c(-c2ccccc2)nnc1-c1ccccc1)NO
Task: Output the entries ranked by pKi from maximum down to minimum. Form field (ranking): labels in requested order.
Output: B, C, A
(B: 7.16, C: 6.51, A: 5.83)

----------
TARGET ENTITY: mouse ovastacin (Mus musculus, UniProt Q6HA09)
Sequence (Q6HA09 86-435 limits assumed): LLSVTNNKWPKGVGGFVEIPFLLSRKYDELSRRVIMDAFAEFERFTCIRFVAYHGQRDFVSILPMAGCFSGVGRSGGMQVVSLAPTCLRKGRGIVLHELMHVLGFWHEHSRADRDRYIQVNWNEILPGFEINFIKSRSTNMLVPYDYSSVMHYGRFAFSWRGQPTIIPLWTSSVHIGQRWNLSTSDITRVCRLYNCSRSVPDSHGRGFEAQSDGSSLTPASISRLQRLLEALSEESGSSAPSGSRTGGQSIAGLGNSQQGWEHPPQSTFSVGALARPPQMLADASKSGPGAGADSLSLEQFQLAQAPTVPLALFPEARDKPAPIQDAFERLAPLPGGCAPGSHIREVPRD
READOUT LABEL: Ki (µM)

Worked examples, 3 molecules total:
{"SMILES": "O=C(Cn1c(-c2ccccc2)nc2ccccc21)NO", "TARGET ENTITY": "mouse ovastacin (Mus musculus, UniProt Q6HA09)", "UNIT TEXT": "µM", "OBSERVED MEASUREMENT": 2.09}
{"SMILES": "O=C(Cc1c(-c2ccccc2)noc1-c1ccccc1)NO", "TARGET ENTITY": "mouse ovastacin (Mus musculus, UniProt Q6HA09)", "UNIT TEXT": "µM", "OBSERVED MEASUREMENT": 0.066}
{"SMILES": "O=C(Cn1c(-c2ccccc2)cc2ccccc21)NO", "TARGET ENTITY": "mouse ovastacin (Mus musculus, UniProt Q6HA09)", "UNIT TEXT": "µM", "OBSERVED MEASUREMENT": 0.093}

[I] O=C(CCn1c(-c2ccccc2)cc2ccccc21)NO
[II] O=C(CCn1c(-c2ccccc2)nnc1-c1ccccc1)NO
Task: Which has the higher Ki, I or II ? Respond using the label that marks the chosen record.
Output: II

[P] O=C(Cn1c(-c2ccccc2)nnc1-c1ccccc1)NO
[Q] O=C(CCn1c(-c2ccccc2)nc2ccccc21)NO
[R] O=C(Cc1c(-c2ccccc2)n[nH]c1-c1ccccc1)NO
[S] O=C(CCc1c(-c2ccccc2)n[nH]c1-c1ccccc1)NO
Task: Output the entries ranked by Ki from maximum down to minimum. Form field (ranking): labels in requested order.
Output: Q, P, S, R
(Q: 9.8 µM, P: 4.88 µM, S: 2.42 µM, R: 0.196 µM)
